# Tested on: K562
# assay-details: NCI tumour cell line growth inhibition, 48 h
The source made the active and inactive calls. No stated cut-off is given here; in the data, active = GI50 up to about 1.1 µM and inactive = higher.
Labels: active, inactive

>  <molecule>
COC(=O)[C@H](C)N(C)C(=O)[C@H](C)N1[C@@H](c2ccccc2)COC1(C)C

>  <cat>
inactive

$$$$
>  <molecule>
C=CCN1CN(c2ccccc2)C2(CCN(CCCC3(c4ccc(F)cc4)OCCO3)CC2)C1=O

>  <cat>
inactive

$$$$
>  <molecule>
CC(=O)OCSc1ncnc2c1ncn2CN1CCOCC1

>  <cat>
active

$$$$
>  <molecule>
CC(=O)O[C@H]1C[C@](C)(O)[C@@]23CC([C@@H](OC(=O)C(C)(C)O)[C@@H](OC(C)=O)C2(COC(=O)c2ccccc2)[C@H]1OC(C)=O)C(C)(C)O3 (stereo partly drawn)

>  <cat>
inactive

$$$$
>  <molecule>
COC(=O)C(C(=O)C(=O)Nc1ccccc1C(C)=O)c1nc2ccc(Cl)cc2nc1O (stereo not drawn)

>  <cat>
inactive

$$$$
>  <molecule>
COC1C(O)CC(OC2C(C)OC(Oc3cc(O)c4c(O)c5c(cc4c3)C[C@@H]([C@H](OC)C(=O)[C@@H](O)[C@@H](C)O)[C@H](OC3CC(OC4CC(OC6CC(C)(O)C(O)C(C)O6)C(O)C(C)O4)C(O)C(C)O3)C5=O)CC2OC(C)=O)OC1C (stereo partly drawn)

>  <cat>
inactive

$$$$
>  <molecule>
[O-][n+]1onc2c1CCC(=N\O)/C2=N/Nc1ccccc1

>  <cat>
inactive

$$$$
>  <molecule>
CC(NC(=O)/C(C#N)=C/c1ccc2[nH]ccc2c1)c1ccccc1 (stereo not drawn)

>  <cat>
inactive

$$$$
>  <molecule>
Cc1ccc([S+]([O-])/C=C(\NC(=O)OCc2ccccc2)C(F)(F)F)cc1 (stereo not drawn)

>  <cat>
inactive

$$$$
>  <molecule>
Cn1c2c3ccccc3nc-2c(O)c2ccccc21 [HYDROXYCRYPTOLEPINE]

>  <cat>
inactive

$$$$
>  <molecule>
COc1ccc2oc3c(OC)c(OC)c(OC)cc3c(=O)c2c1

>  <cat>
inactive

$$$$
>  <molecule>
Cc1cc(C)c2c(n1)S(=O)(=O)N(CCCN1CCN(c3cccc(C(F)(F)F)c3)CC1)C(C(=O)c1ccccc1)=C2O

>  <cat>
inactive

$$$$
>  <molecule>
C(CCC[Te][Te]CCCCCCOC1CCCCO1)CCOC1CCCCO1 (stereo not drawn)

>  <cat>
inactive

$$$$
>  <molecule>
CCNC(=O)O/N=C1\CCC2[C@@H]3CC=C4C[C@@H](OC(=O)NCC)CC[C@]4(C)C3CC[C@]12C (stereo partly drawn)

>  <cat>
active

$$$$
>  <molecule>
COc1ccccc1/C=C(\NC(=O)c1ccccc1)c1nc2ccccc2[nH]1

>  <cat>
inactive

$$$$
>  <molecule>
CCCN(CCCC(NC(C)=O)C(=O)NCc1ccccc1)C(=O)N(CCCl)N=O (stereo not drawn)

>  <cat>
inactive

$$$$
>  <molecule>
Brc1ccc2nc(-c3cccs3)nc(N3CCN(c4ccccc4)CC3)c2c1

>  <cat>
inactive

$$$$
>  <molecule>
CC1=NN(c2nc(N)nc(/C(C#N)=C\c3ccc(-c4ccc([N+](=O)[O-])cc4)o3)n2)C(C)(C)C1

>  <cat>
inactive

$$$$
>  <molecule>
CCCCc1c2c(nc3c1CCc1cc(C=O)c(N)nc1-3)/C(=C/c1ccccc1)CCC2

>  <cat>
inactive

$$$$
>  <molecule>
CCN(CCCl)CCCNc1c2ccccc2nc2ccc(OC)cc12

>  <cat>
active

$$$$
>  <molecule>
CN1CC[C@]23c4c5ccc(O)c4OC2c2[nH]ncc2C[C@H]3[C@H]1C5 (stereo partly drawn)

>  <cat>
inactive

$$$$
>  <molecule>
S=c1nc(Nc2ccc(Br)cc2)c2c3c(sc2[nH]1)CN(N1CCc2c(sc4[nH]c(=S)nc(Nc5ccc(Br)cc5)c24)C1)CC3

>  <cat>
inactive

$$$$
>  <molecule>
N#C/N=C(/NCc1ccccc1)N(Cc1ccccc1)Cc1ccccc1

>  <cat>
inactive

$$$$
>  <molecule>
CN(C)C(=S)/N=c1\ssc(=S)n1Cc1ccccn1

>  <cat>
active

$$$$
>  <molecule>
C=C1CC(c2ccc(OCCCN3C(=O)c4ccccc4C3=O)c(OC)c2)OC1=O (stereo not drawn)

>  <cat>
active

$$$$
>  <molecule>
Cc1ccc(-n2cc(-c3ccc(Cl)cc3)c3c(NN)ncnc32)cc1

>  <cat>
inactive

$$$$
>  <molecule>
CCCCI(O)OS(=O)(=O)c1ccc(C)cc1

>  <cat>
inactive

$$$$
>  <molecule>
O=C1c2cc3ncsc3cc2C(=O)c2c(O)ccc(O)c21

>  <cat>
inactive

$$$$
>  <molecule>
CN(C)c1cccc(F)c1C(=O)NC(=O)Nc1ccc(Cl)cc1

>  <cat>
active

$$$$
>  <molecule>
CC(CO)CCC(O)C(C)(O)C1CCC2(O)C3=CC(=O)C4CC(O)C(O)CC4(C)C3CCC12C (stereo not drawn)

>  <cat>
inactive

$$$$
>  <molecule>
O/N=N/c1ccc2ccccc2n1

>  <cat>
inactive

$$$$
>  <molecule>
CC(=O)n1nc(-c2ccc3ccccc3c2)nc1C

>  <cat>
inactive

$$$$
>  <molecule>
CN(C)CCOc1ccc(-c2c(Oc3ccccc3)c(=O)oc3ccccc23)cc1

>  <cat>
inactive

$$$$
>  <molecule>
O=C1C(c2ccc(C3=[N+]([O-])c4cc([N+](=O)[O-])ccc4C3=O)cc2)=[N+]([O-])c2cc([N+](=O)[O-])ccc21

>  <cat>
inactive

$$$$
>  <molecule>
c1ccc(-c2nc(-c3ccccc3SSc3ccccc3-c3nc(-c4ccccc4)nn3-c3ccccc3)n(-c3ccccc3)n2)cc1

>  <cat>
inactive

$$$$
>  <molecule>
COc1ccc(/C(=C/n2ccnc2)C(=O)c2ccc(OC)c(OC)c2)cc1

>  <cat>
inactive

$$$$
>  <molecule>
COc1ccc(CC/N=C2\CCC(C(=O)NCCc3ccc(OC)c(OC)c3)N2)cc1OC (stereo not drawn)

>  <cat>
inactive

$$$$
>  <molecule>
COc1ccc(C2C(N)=NCC2c2ccccn2)cc1 (stereo not drawn)

>  <cat>
inactive

$$$$

###

# Tested on: LOX IMVI
# assay-details: NCI tumour cell line growth inhibition, 48 h
The source made the active and inactive calls. Cut-off read from the data, not from the text of the source: active = GI50 up to about 1.1 µM and inactive = higher.
Labels: true (1) for active, false (0) for inactive

>  <molecule>
CCc1cccc(C(C)C)c1NC(=O)CCl

>  <cat>
false (0)

$$$$
>  <molecule>
COc1cc2c3cc1Oc1c(OC)c(OC)cc4c1C(=NCC4)Cc1ccc(cc1)Oc1cc(ccc1O)C[C@H]3N(C)CC2

>  <cat>
false (0)

$$$$
>  <molecule>
COc1cccc2cc(C(N)=O)c(=N)oc12

>  <cat>
false (0)

$$$$
>  <molecule>
CC(C)CCCC(C)[C@H]1CC[C@H]2[C@@H]3CC[C@H]4C[C@@H](CCC=C(c5cc(Cl)c(O)c(C(=O)OC(C)(C)C)c5)c5cc(Cl)c(O)c(C(=O)OC(C)(C)C)c5)CC[C@]4(C)[C@H]3CC[C@]12C (stereo partly drawn)

>  <cat>
false (0)

$$$$
>  <molecule>
O=C1Nc2ccccc2Nc2ccncc21

>  <cat>
false (0)

$$$$
>  <molecule>
Cc1ccc2nc3sc(=O)sc3nc2c1 [CHINOMETHIONAT]

>  <cat>
false (0)

$$$$
>  <molecule>
CC12CC3(C)CC(C)(C1)CC(N=[N+]=[N-])(C2)C3

>  <cat>
false (0)

$$$$
>  <molecule>
CCCCCCCCCCCCCCCC/C(C(=O)OC)=C(/O)C(=O)OCC

>  <cat>
false (0)

$$$$
>  <molecule>
O=C1CCC(=O)N1n1c(Cc2ccc(Cl)cc2)n[nH]c1=O

>  <cat>
false (0)

$$$$
>  <molecule>
C(=C\c1cc[n+](CCc2ccccc2)cc1)/c1ccccc1

>  <cat>
false (0)

$$$$
>  <molecule>
CC1(C)C=C(S(=O)(=O)c2ccccc2)Oc2ccccc2O1

>  <cat>
false (0)

$$$$
>  <molecule>
Cn1c2c3c(F)c(F)ccc3nc-2cc2ccccc21

>  <cat>
true (1)

$$$$
>  <molecule>
COc1cccc2c1C(=O)c1c(O)c3c(c(O)c1C2=O)C[C@@](O)(C(=O)CO)C[C@@H]3OC1CC(N)C(OC)C(C)O1 (stereo partly drawn)

>  <cat>
true (1)

$$$$
>  <molecule>
C/C(=N\O)c1ccc2ccc3ccccc3c2c1

>  <cat>
false (0)

$$$$
>  <molecule>
O=C(CC(C(=O)c1cccs1)c1ccsc1)c1ccco1 (stereo not drawn)

>  <cat>
false (0)

$$$$
>  <molecule>
O=C(Nc1ccccc1)c1cc(S(=O)(=O)N2CCNNC2=O)c(S)cc1Cl

>  <cat>
false (0)

$$$$
>  <molecule>
O=C1Nc2nccnc2C(=O)N2CCC[C@@H]12

>  <cat>
false (0)

$$$$
>  <molecule>
COc1c(Cl)ccc(Cl)c1C(=O)NNC(=O)c1c(Cl)c(Cl)c(Cl)c(Cl)c1-c1nc2cc(C(=O)c3ccccc3)ccc2[nH]1

>  <cat>
false (0)

$$$$
>  <molecule>
CN(Cc1ccccc1)C(=O)c1ccccc1C(=O)O

>  <cat>
false (0)

$$$$
>  <molecule>
CC1=NN(C(=O)c2ccc(Cl)cc2)C(=O)C1/N=N/c1ccc(S(=O)(=O)Nc2ncccn2)cc1 (stereo not drawn)

>  <cat>
false (0)

$$$$
>  <molecule>
CC(=O)O[C@H]1C[C@](C)(O)[C@@]23CC([C@@H](OC(=O)C(C)(C)O)[C@@H](OC(C)=O)C2(COC(=O)c2ccccc2)[C@H]1OC(C)=O)C(C)(C)O3 (stereo partly drawn)

>  <cat>
false (0)

$$$$
>  <molecule>
Cc1ccc2c(/C=C/c3ccc(N(C)C)cc3)ccnc2c1C

>  <cat>
false (0)

$$$$
>  <molecule>
Cc1nc(Nc2nc3ccccc3[nH]2)[nH]c(=O)c1CCO

>  <cat>
false (0)

$$$$
>  <molecule>
CCOC(=O)C(SCCO)C(C(=O)OCC)n1cnc2c(=O)[nH]c(NC(C)=O)nc21 (stereo not drawn)

>  <cat>
false (0)

$$$$
>  <molecule>
CC(=O)OCSc1ncnc2c1ncn2CN1CCOCC1

>  <cat>
false (0)

$$$$
>  <molecule>
C[C@H]1C=C2C(=O)O[C@H]3CC[C@@H](C1)[C@@]23O

>  <cat>
false (0)

$$$$
>  <molecule>
COc1ccc(/C(=C/n2ccnc2)C(=O)c2ccc(OC)c(OC)c2)cc1

>  <cat>
false (0)

$$$$
>  <molecule>
CCOC(=O)CNC(=O)C(CSCC1C(=O)Nc2ccccc21)NC(=O)CCC(N)C(=O)OCC (stereo not drawn)

>  <cat>
true (1)

$$$$
>  <molecule>
CN(C)CCOc1ccc(-c2c(Oc3ccccc3)c(=O)oc3ccccc23)cc1

>  <cat>
false (0)

$$$$
>  <molecule>
CCC(C)c1c(Cl)nc(Cl)nc1Cl (stereo not drawn)

>  <cat>
true (1)

$$$$
>  <molecule>
COc1cc2ncnc(Nc3cccc(Br)c3)c2cc1OC

>  <cat>
false (0)

$$$$
>  <molecule>
Cc1nc2sccn2c1C(=O)OCCOCCOCCOCCOC(=O)c1c(C)nc2sccn12

>  <cat>
false (0)

$$$$
>  <molecule>
Nc1c(Cl)ncnc1NCC1(CO)CCC1

>  <cat>
false (0)

$$$$
>  <molecule>
CC(=O)Oc1c2ccsc2c(OC(C)=O)c2ccsc12

>  <cat>
true (1)

$$$$
>  <molecule>
CC(C)OC(=O)NNc1cccc(Cl)c1

>  <cat>
false (0)

$$$$
>  <molecule>
C=Nc1ccc([N+](=O)[O-])cc1

>  <cat>
false (0)

$$$$
>  <molecule>
CCC1=CCC(P(=O)(c2ccccc2)c2ccccc2)CC1C (stereo not drawn)

>  <cat>
false (0)

$$$$
>  <molecule>
N#C/N=C(/NCc1ccccc1)N(Cc1ccccc1)Cc1ccccc1

>  <cat>
false (0)

$$$$
>  <molecule>
O=C(O)C1(Nc2ccc(Cl)cc2)CCCC1

>  <cat>
false (0)

$$$$
>  <molecule>
C/C(N)=[N+](/C)[O-]

>  <cat>
false (0)

$$$$
>  <molecule>
Oc1ccc2occ3c2c1CCC3

>  <cat>
false (0)

$$$$
>  <molecule>
C[S+]([O-])c1cc(=O)c2ccccc2s1 (stereo not drawn)

>  <cat>
false (0)

$$$$
>  <molecule>
COc1ccc(CC/N=C2\CCC(C(=O)NCCc3ccc(OC)c(OC)c3)N2)cc1OC (stereo not drawn)

>  <cat>
false (0)

$$$$
